- Assay Remarks: Chemical stability of the compound assessed as half life at 1.15 mM at pH 7.5 by nitrile war-head stability assay in presence of GSH
- Assay type: physicochemical

Test Smiles | half-life at 1150 µM
CN1CCN(CCCOc2ccc(-c3ccnc(C#N)n3)cc2C(F)(F)F)CC1 | < 15 min

----------
In this section, each of the compounds is paired with its reported IC50.
Target protein (sequence): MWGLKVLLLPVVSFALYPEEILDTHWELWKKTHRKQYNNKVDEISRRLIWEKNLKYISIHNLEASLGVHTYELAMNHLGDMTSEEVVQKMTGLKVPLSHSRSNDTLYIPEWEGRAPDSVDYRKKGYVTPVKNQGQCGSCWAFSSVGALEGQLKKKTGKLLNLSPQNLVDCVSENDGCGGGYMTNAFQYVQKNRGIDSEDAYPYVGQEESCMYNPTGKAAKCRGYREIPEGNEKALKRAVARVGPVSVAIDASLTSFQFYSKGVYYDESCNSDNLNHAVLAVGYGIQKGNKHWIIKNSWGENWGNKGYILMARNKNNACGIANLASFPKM

Test Smiles | IC50
CCOc1ccc(-c2cc3c(ncn3C)c(C#N)n2)cc1C(F)(F)F | 1.26 µM
N#Cc1nc(-c2ccc(OCCCO)c(C(F)(F)F)c2)cc2[nH]cnc12 | 2.69 µM
CN(C)CCCOc1ccc(-c2cc3c(ncn3C)c(C#N)n2)cc1C(F)(F)F | 0.776 µM
CCNc1ccc(-c2cc3[nH]cnc3c(C#N)n2)cc1C(F)(F)F | > 10 µM
Cn1cnc2c(C#N)nc(-c3ccc(OC4CCNCC4)c(C(F)(F)F)c3)cc21 | 0.891 µM
CCOc1ccc(-c2cc3c(ncn3CCCN3CCOCC3)c(C#N)n2)cc1C(F)(F)F | 0.513 µM
Cn1cnc2c(C#N)nc(-c3ccc(OCCN4CCNC(=O)C4)c(C(F)(F)F)c3)cc21 | 1.17 µM
CCOc1ccc(-c2cc3[nH]cnc3c(C#N)n2)cc1C(F)(F)F | 8.31 µM
Cn1cnc2c(C#N)nc(-c3ccc(OCC4CCNCC4)c(C(F)(F)F)c3)cc21 | 0.24 µM
N#Cc1nc(-c2ccc(OCCO)c(C(F)(F)F)c2)cc2[nH]cnc12 | 2.82 µM
Cn1cnc2c(C#N)nc(-c3ccc(OCCN4CCCC4=O)c(C(F)(F)F)c3)cc21 | 2.51 µM
Cn1cnc2c(C#N)nc(-c3ccc(CCO)c(C(F)(F)F)c3)cc21 | 3.16 µM

----------
- Study Target: Cathepsin S (Homo sapiens, UniProt P25774)
- Sequence (P25774 whole entry): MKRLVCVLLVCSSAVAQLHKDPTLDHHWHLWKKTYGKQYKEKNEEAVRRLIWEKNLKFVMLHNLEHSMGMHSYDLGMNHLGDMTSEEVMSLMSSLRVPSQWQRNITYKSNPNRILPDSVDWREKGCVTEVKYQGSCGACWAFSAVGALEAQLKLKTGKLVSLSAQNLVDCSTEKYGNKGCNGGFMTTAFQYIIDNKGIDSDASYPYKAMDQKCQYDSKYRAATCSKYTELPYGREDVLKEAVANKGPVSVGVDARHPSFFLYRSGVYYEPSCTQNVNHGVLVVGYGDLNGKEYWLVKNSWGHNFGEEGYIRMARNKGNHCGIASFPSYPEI
- Assay Remarks: Inhibition of cathepsin S-mediated proteolytic cleavage of MHC2 associated invariant chain in human JY cells assessed as accumulation of lip10 by Western blot analysis
- Assay type: cell-based
Could you please mark yes (1) for values of IC50 below 100 nM and no (0) for values at or above it?

Test Smiles | Class Name
Cn1cnc2c(C#N)nc(-c3ccc(OCCCN4CCCC4)c(C(F)(F)F)c3)cc21 | yes (1)
CN1CCN(CCCOc2ccc(-c3cc4c(ncn4C)c(C#N)n3)cc2C(F)(F)F)CC1 | no (0)
Cn1cnc2c(C#N)nc(-c3ccc(OCCC4CCNCC4)c(C(F)(F)F)c3)cc21 | yes (1)
Cc1cccc(CCOc2ccc(-c3cc4c(ncn4C)c(C#N)n3)cc2C(F)(F)F)n1 | no (0)
CCOc1ccc(-c2cc3c(ncn3CCN(C)C)c(C#N)n2)cc1C(F)(F)F | no (0)
Cn1cnc2c(C#N)nc(-c3ccc(OCc4ccccn4)c(C(F)(F)F)c3)cc21 | no (0)
CCOc1ccc(-c2cc3c(ncn3CCN3CCOCC3)c(C#N)n2)cc1C(F)(F)F | no (0)
CCN1CCN(CCCOc2ccc(-c3cc4c(ncn4C)c(C#N)n3)cc2C(F)(F)F)CC1 | yes (1)
Cn1cnc2c(C#N)nc(-c3ccc(OCCN4CCCC4=O)c(C(F)(F)F)c3)cc21 | no (0)
CN(C)CCCOc1ccc(-c2cc3c(ncn3C)c(C#N)n2)cc1C(F)(F)F | yes (1)
CCOc1ccc(-c2cc3c(ncn3CCCN(C)C)c(C#N)n2)cc1C(F)(F)F | no (0)

Reference source for all entries: ChEMBL document CHEMBL1208745
